- TESTED_TARGET: Adrenergic receptor alpha-2 (Rattus norvegicus, UniProt P22086+P19328+P22909)
- Sequence (P22086 whole entry): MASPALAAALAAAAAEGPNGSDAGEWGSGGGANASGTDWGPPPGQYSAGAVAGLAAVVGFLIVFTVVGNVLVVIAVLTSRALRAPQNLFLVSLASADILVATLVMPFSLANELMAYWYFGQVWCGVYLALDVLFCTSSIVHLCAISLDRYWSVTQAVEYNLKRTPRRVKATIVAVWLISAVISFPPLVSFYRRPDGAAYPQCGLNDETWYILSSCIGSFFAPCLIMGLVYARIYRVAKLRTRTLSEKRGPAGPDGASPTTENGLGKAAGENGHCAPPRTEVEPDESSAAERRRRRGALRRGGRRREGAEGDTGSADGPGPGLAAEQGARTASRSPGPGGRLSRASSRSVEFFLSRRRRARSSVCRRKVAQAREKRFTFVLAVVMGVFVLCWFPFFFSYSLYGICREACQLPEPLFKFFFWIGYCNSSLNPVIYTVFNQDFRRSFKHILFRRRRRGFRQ
- Sequence (P19328 whole entry): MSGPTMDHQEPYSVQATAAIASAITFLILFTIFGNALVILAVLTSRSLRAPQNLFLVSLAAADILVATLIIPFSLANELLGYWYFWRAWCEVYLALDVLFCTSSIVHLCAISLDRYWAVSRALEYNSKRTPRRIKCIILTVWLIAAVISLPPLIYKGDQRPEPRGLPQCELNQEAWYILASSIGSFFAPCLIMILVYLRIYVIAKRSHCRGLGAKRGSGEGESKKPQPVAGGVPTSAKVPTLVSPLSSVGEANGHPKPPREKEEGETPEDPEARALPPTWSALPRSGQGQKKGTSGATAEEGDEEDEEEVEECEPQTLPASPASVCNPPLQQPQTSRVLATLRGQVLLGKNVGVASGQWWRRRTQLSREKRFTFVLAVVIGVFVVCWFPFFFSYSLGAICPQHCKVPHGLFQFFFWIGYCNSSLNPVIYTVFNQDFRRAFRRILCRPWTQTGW
- Sequence (P22909 whole entry): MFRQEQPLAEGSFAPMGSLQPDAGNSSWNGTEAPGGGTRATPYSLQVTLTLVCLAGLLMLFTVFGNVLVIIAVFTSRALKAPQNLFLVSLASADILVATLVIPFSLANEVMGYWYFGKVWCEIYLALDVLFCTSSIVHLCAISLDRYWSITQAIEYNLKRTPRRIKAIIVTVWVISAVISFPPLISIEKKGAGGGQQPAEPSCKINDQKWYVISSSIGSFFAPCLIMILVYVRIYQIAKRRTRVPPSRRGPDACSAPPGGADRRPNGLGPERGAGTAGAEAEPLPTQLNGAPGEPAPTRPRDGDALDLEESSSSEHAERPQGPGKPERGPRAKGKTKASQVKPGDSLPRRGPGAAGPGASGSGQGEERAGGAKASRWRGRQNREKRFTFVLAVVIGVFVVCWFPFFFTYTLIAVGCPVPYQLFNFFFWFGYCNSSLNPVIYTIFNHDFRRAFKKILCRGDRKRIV
- TEST_DESCRIPTION: Binding affinity was determined against alpha-2 adrenergic receptor of rat cerebral cortex using [3H]yohimbine as radioligand
- Assay type: tissue-based
RECORDED_METRIC: Log Ki
One number for each entry.

Look over these answered cases.
[
  {
    "COMPOUND": "COc1ccc(OC)c2c1CCN(CC1=NCCN1)C2C.Cl.Cl (stereo not given)",
    "Log Ki": -7.71
  },
  {
    "COMPOUND": "Cl.Cl.Clc1cccc2c1CN(CC1=NCCN1)CC2",
    "Log Ki": -6.67
  },
  {
    "COMPOUND": "COc1ccc2c(c1OC)CCN(CC1=NCCN1)C2.Cl.Cl",
    "Log Ki": -6.44
  }
]

Look up Log Ki for the entries below, preserving their order.
1. Cl.Cl.Clc1ccc2c(c1)CCN(CC1=NCCN1)C2
2. Cl.Cl.c1ccc2c(c1)CN(CC1=NCCN1)C2

[-6.18, -6.91]

====

- TESTED_TARGET: Adrenergic receptor alpha-2 (Rattus norvegicus, UniProt P22086+P19328+P22909)
- Sequence (P22086 whole entry): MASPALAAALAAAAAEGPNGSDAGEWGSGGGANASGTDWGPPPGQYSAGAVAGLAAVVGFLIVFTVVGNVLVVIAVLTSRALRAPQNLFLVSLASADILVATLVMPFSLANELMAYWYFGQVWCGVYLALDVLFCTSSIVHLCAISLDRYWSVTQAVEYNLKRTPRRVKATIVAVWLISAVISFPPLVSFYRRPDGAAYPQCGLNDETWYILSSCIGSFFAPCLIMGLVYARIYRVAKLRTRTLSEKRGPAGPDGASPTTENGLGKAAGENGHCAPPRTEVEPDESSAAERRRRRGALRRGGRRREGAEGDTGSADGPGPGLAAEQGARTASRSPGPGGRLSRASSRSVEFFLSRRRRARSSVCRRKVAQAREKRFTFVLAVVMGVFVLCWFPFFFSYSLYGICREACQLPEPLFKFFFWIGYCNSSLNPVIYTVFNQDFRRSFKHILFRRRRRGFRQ
- Sequence (P19328 whole entry): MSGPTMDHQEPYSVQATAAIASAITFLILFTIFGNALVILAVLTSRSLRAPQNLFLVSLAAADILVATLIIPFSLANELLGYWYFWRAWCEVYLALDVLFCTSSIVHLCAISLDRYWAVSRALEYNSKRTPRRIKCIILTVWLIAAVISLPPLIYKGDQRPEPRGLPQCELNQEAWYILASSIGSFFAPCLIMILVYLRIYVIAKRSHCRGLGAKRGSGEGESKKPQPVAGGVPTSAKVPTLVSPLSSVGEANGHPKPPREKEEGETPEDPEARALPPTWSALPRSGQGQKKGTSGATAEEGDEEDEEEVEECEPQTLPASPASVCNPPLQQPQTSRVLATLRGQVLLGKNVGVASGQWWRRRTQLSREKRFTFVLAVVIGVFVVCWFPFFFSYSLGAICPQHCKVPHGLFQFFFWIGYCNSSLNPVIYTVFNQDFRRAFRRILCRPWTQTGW
- Sequence (P22909 whole entry): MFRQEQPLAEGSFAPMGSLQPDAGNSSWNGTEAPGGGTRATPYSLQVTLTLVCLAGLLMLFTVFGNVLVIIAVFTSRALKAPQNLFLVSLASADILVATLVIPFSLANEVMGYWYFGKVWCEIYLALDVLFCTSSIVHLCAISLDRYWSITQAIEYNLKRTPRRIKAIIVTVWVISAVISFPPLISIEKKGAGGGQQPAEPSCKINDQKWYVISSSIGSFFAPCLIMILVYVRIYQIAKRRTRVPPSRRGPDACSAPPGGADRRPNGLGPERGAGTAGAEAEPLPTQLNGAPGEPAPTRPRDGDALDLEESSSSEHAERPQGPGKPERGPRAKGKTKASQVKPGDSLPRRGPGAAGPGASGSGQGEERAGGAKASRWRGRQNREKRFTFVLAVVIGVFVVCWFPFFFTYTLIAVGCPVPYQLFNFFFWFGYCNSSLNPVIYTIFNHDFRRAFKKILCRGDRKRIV
- TEST_DESCRIPTION: Binding affinity to alpha-2 adrenergic receptor of rat cerebral cortex assayed using [3H]yohimbine as radioligand
- Assay type: tissue-based
RECORDED_METRIC: Log Ki

Below are worked cases with known answers.
[
  {
    "COMPOUND": "CC1Cc2ccccc2CN1CC1=NCCN1.Cl.Cl (stereo unspecified)",
    "TESTED_TARGET": "Adrenergic receptor alpha-2 (Rattus norvegicus, UniProt P22086+P19328+P22909)",
    "Log Ki": -6.9
  },
  {
    "COMPOUND": "Cl.Cl.Clc1cccc2c1CN(CC1=NCCN1)C2",
    "TESTED_TARGET": "Adrenergic receptor alpha-2 (Rattus norvegicus, UniProt P22086+P19328+P22909)",
    "Log Ki": -7.71
  },
  {
    "COMPOUND": "COc1cc2c(cc1OC)CN(CC1=NCCN1)CC2.Cl.Cl",
    "TESTED_TARGET": "Adrenergic receptor alpha-2 (Rattus norvegicus, UniProt P22086+P19328+P22909)",
    "Log Ki": -5.87
  }
]

// for each compound in input: emit Log Ki
1. Cl.Cl.Clc1ccc2c(c1Cl)CN(CC1=NCCN1)CC2
2. CCC1c2ccccc2CCN1CC1=NCCN1.Cl.Cl (stereo unspecified)
3. Cl.Cl.Clc1cccc2c1CCN(CC1=NCCN1)C2

[-6.52, -6.16, -7.65]

====

Exercise: state measured Log Ki for each of the compounds provided.
- TESTED_TARGET: Adrenergic receptor alpha-2 (Rattus norvegicus, UniProt P22086+P19328+P22909)
- TEST_DESCRIPTION: Binding affinity to alpha-2 adrenergic receptor of rat cerebral cortex assayed using [3H]yohimbine as radioligand
- Type: tissue-based

See these solved cases before continuing.
[
  {
    "COMPOUND": "Cl.Cl.Clc1ccc(Cl)c2c1CCN(CC1=NCCN1)C2",
    "TESTED_TARGET": "Adrenergic receptor alpha-2 (Rattus norvegicus, UniProt P22086+P19328+P22909)",
    "Log Ki": -7.14
  },
  {
    "COMPOUND": "COc1cccc2c1CCN(CC1=NCCN1)C2.Cl.Cl",
    "TESTED_TARGET": "Adrenergic receptor alpha-2 (Rattus norvegicus, UniProt P22086+P19328+P22909)",
    "Log Ki": -7.07
  },
  {
    "COMPOUND": "CC1c2cccc(Cl)c2CCN1CC1=NCCN1.Cl.Cl (stereo not given)",
    "TESTED_TARGET": "Adrenergic receptor alpha-2 (Rattus norvegicus, UniProt P22086+P19328+P22909)",
    "Log Ki": -6.74
  },
  {
    "COMPOUND": "Cl.Cl.c1ccc2c(c1)CCN(CC1=NCCN1)C2",
    "TESTED_TARGET": "Adrenergic receptor alpha-2 (Rattus norvegicus, UniProt P22086+P19328+P22909)",
    "Log Ki": -6.32
  },
  {
    "COMPOUND": "Cl.Nc1cccc2c1CCN(CC1=NCCN1)C2",
    "TESTED_TARGET": "Adrenergic receptor alpha-2 (Rattus norvegicus, UniProt P22086+P19328+P22909)",
    "Log Ki": -6.17
  },
  {
    "COMPOUND": "Cc1cccc2c1CCN(CC1=NCCN1)C2.Cl.Cl",
    "TESTED_TARGET": "Adrenergic receptor alpha-2 (Rattus norvegicus, UniProt P22086+P19328+P22909)",
    "Log Ki": -6.57
  }
]

Record Log Ki per entry; entries follow.
1. C=CCC1c2ccccc2CCN1CC1=NCCN1.Cl.Cl (stereo not given)
2. Cl.Cl.Fc1cccc2c1CCN(CC1=NCCN1)C2
3. CC1c2ccccc2CCN1CC1=NCCN1.Cl.Cl (stereo not given)
4. COc1cc2c(c(OC)c1)CN(CC1=NCCN1)CC2.Cl.Cl
5. CC1(C)c2ccccc2CCN1CC1=NCCN1.Cl.Cl
6. Cl.Cl.Fc1cccc2c1CN(CC1=NCCN1)CC2
7. Cl.Cl.Clc1ccc2c(c1Cl)CCN(CC1=NCCN1)C2
8. COc1ccc(OC)c2c1CCN(CC1=NCCN1)C2.Cl.Cl

[-5.97, -7.48, -7.19, -6.29, -6, -7.25, -6.42, -7.51]

Value of Log Ki reported for the compound `Cl.Cl.O=[N+]([O-])c1cccc2c1CCN(CC1=NCCN1)C2` is -6.13
